System: Fibroblast
Assay: Multiplex assay against human fibroblast
Assay type: toxicity, cell-based
Details: 12 h, 10 µM, compound concentration 10 uM, replicate 2
measuredEndpoint: Population Normal (%)
Expressed in %, but write only the number.

Worked set:
| compound | experimentalSystem | measuredEndpoint | recordedResult |
| --- | --- | --- | --- |
| CCC(=O)OCC(=O)[C@@]1(OC(=O)CC)[C@@H](C)C[C@H]2[C@@H]3CCC4=CC(=O)C=C[C@]4(C)[C@@]3(Cl)[C@@H](O)C[C@@]21C [BECLOMETHASONE DIPROPIONATE] | Fibroblast | Population Normal (%) | 94 |
| Cn1cc(C(=O)OCC2CCN(CCNS(C)(=O)=O)CC2)c2ccccc21 | Fibroblast | Population Normal (%) | 94 |
| CC(F)(F)CN1CCOc2c(nn(-c3ccccc3Cl)c2-c2ccc(Cl)cc2)C1=O | Fibroblast | Population Normal (%) | 94 |
| CN1CCN2c3ccccc3Cc3ccccc3C2C1.Cl (stereo not drawn) [MIANSERIN HYDROCHLORIDE] | Fibroblast | Population Normal (%) | 93 |
| CN1C[C@H](C(=O)N[C@]2(C)O[C@@]3(O)[C@@H]4CCCN4C(=O)[C@H](Cc4ccccc4)N3C2=O)C[C@@H]2c3cccc4[nH]cc(c34)C[C@H]21.CS(=O)(=O)O [DIHYDROERGOTAMINE MESYLATE] | Fibroblast | Population Normal (%) | 91 |
| CN1CCN(c2ccc(Nc3c4ccccc4nc4ccccc34)cc2)CC1.Cl.Cl.O | Fibroblast | Population Normal (%) | 83 |
| CC(C)(O)C(=O)N1CCN(c2ccc(C(F)(F)F)c(C3=C(c4c[nH]c5ccccc45)C(=O)NC3=O)c2)CC1 | Fibroblast | Population Normal (%) | 93 |

Let us move to another entry and its Population Normal (%).
Lab entry: Fibroblast assay, compound COc1ccc2c(c1OCc1ccccc1)C[C@@H](C(=O)O)N(C(=O)C(c1ccccc1)c1ccccc1)C2 [OLODANRIGAN] , Population Normal (%) = 94

---

Tested on: Fibroblast
Assay: Multiplex assay against human fibroblast
Type: toxicity, cell-based
Settings: 48 h, 10 µM, compound concentration 10 uM, replicate 2
Records here are stratified by Population Membrane Permeable-Phenotype (%); strata: lower band: < 3%; central band: ≥ 3% and < 7%; upper band: ≥ 7%

Worked examples follow.
| molecule | group |
| --- | --- |
| Cc1cc(NC(=O)NCCN2CCC(O)(Cc3ccccc3)CC2)c2ccccc2n1 | lower band |
| CCc1nn2c(C)cc(C)nc2c1Cc1ccc(-c2nnc(C3CCNCC3)o2)cc1 | lower band |
| CCCCC[C@H](O)/C=C/[C@H]1[C@H](O)CC(=O)[C@@H]1CCCCCCC(=O)O | upper band |

Which class does "Nc1nc(CC(=O)Nc2ccc(CCNC[C@H](O)c3ccccc3)cc2)cs1" fall in?
central band

Which class does "C[C@@H]1CC(=O)Nc2cccc(-c3ccc4c(c3)c(-c3cnn(C)c3)nn4C)c2N1" fall in?
central band

Which class does O=C(NCCNCC(O)COc1ccc(O)cc1)N1CCOCC1.O=C(NCCNCC(O)COc1ccc(O)cc1)N1CCOCC1.O=C(O)/C=C/C(=O)O (stereo not drawn) [XAMOTEROL FUMARATE] fall in?
central band

Which class does "COC(c1ccccc1)(c1ccccc1)[C@H](Oc1nc(C)cc(C)n1)C(=O)O" fall in?
lower band

Which class does "Nc1nc(-c2ccco2)c2cnn(Cc3ccccc3F)c2n1" fall in?
upper band

Which class does CN1CCN2c3ccccc3Cc3ccccc3C2C1.Cl (stereo not drawn) [MIANSERIN HYDROCHLORIDE] fall in?
upper band

Which class does "CCCCCCNC(=O)Nc1ccc(S(=O)(=O)Nc2ccc(CCNC[C@H](O)COc3ccc(O)cc3)cc2)cc1" fall in?
central band

---

Population Pyknosed Nuclei (%) values for the molecules below.
Test system: HEK-293T
Test: Multiplex assay against HEK293T
Type: toxicity, cell-based
Settings: human, 48 h, 1 µM, compound concentration 1 uM, replicate 1
Expressed in %, but write only the number.

| structure | measuredEndpoint | measureUnit | recordedResult |
| --- | --- | --- | --- |
| CC(F)(F)CN1CCOc2c(nn(-c3ccccc3Cl)c2-c2ccc(Cl)cc2)C1=O | Population Pyknosed Nuclei (%) | % | 7 |

Sample "CCCCC[C@H](O)/C=C/[C@H]1[C@H](O)CC(=O)[C@@H]1CCCCCCC(=O)O" ; Population Pyknosed Nuclei (%) observed: 7

Sample "O=c1ccc2ccc(OCCCCN3CCN(c4cccc5sccc45)CC3)cc2[nH]1" ; Population Pyknosed Nuclei (%) observed: 10

---

Population Mitochondria Different-Phenotype (%) values for the compounds below.
Tested on: U2OS
Assay: Multiplex assay against U2OS
Assay type: toxicity, cell-based
Settings: human, 48 h, 1 µM, compound concentration 1 uM, replicate 1
Expressed in %, but write only the number.

| compound | recordedResult |
| --- | --- |
| COc1ccc2[nH]c(I)c(CCNC(C)=O)c2c1 [IODOMELATONIN] | 2 |
| O=C(NCCNCC(O)COc1ccc(O)cc1)N1CCOCC1.O=C(NCCNCC(O)COc1ccc(O)cc1)N1CCOCC1.O=C(O)/C=C/C(=O)O (stereo not drawn) [XAMOTEROL FUMARATE] | 2 |
| COC(c1ccccc1)(c1ccccc1)[C@H](Oc1nc(C)cc(C)n1)C(=O)O [AMBRISENTAN] | 1 |
| COc1c(Nc2ccc(S(C)(=O)=O)nc2C)ncnc1OC1CCN(C(=O)OC(C)C)CC1 [ADP-597] | 5 |
| Cc1c(Cc2ccc3ccccc3n2)c2cc(F)ccc2n1CC(=O)O [TIMAPIPRANT] | 3 |
| CN(C)C(=O)Cn1cc(-c2ccc(-c3nnc4ccccn34)cc2)cn1 | 2 |
| Cc1cc(=O)n(C)c2cc(N3C(=O)CC[C@H](NS(=O)(=O)CC(C)C)[C@H]3c3ccc(Cl)cc3)ccc12 | 3 |

Let us move to another entry and its Population Mitochondria Different-Phenotype (%).
Sample "C[C@H](NC(=O)CNC(=O)c1cccc(Cl)c1)c1ccccc1" ; Population Mitochondria Different-Phenotype (%) observed: 3

---

Tested on: U2OS
Assay: Multiplex assay against U2OS
Assay type: toxicity, cell-based
Details: human, 24 h, 1 µM, compound concentration 1 uM, replicate 1
measuredEndpoint: Population Pyknosed Nuclei (%)
Expressed in %, but write only the number.

Worked set:
| compound | experimentalSystem | Population Pyknosed Nuclei (%) |
| --- | --- | --- |
| COc1cc2nc(N3CCN(C(=O)COc4c(OC)cccc4C(C)C)CC3)nc(N)c2cc1OC.Cl.Cl | U2OS | 11 |
| O=C(Nc1cc(-c2ccccc2)nn1-c1ccccc1F)c1ccc([N+](=O)[O-])cc1 | U2OS | 7 |
| CN(C)C(=O)Cn1cc(-c2ccc(-c3nnc4ccccn34)cc2)cn1 | U2OS | 5 |

Let us move to another entry and its Population Pyknosed Nuclei (%).
Lab entry: U2OS assay, compound CC(C)C[C@H](CO)Nc1nc(S[C@@H](C)c2ccccc2)nc2nc(N)sc12 [AZD-8797] , Population Pyknosed Nuclei (%) = 10

---

Population Normal (%) values for the compounds below.
Tested on: HEK-293T
Experiment: Multiplex assay against HEK293T
Assay type: toxicity, cell-based
Conditions: human, 24 h, 10 µM, compound concentration 10 uM, replicate 1
Expressed in %, but write only the number.

Worked set:
| compound | recordedResult |
| --- | --- |
| CC(C)(C)c1ccc(CSc2cnn(C(C)(C)C)c(=O)c2Cl)cc1 | 89 |
| COc1c(Nc2ccc(S(C)(=O)=O)nc2C)ncnc1OC1CCN(C(=O)OC(C)C)CC1 | 92 |
| Cc1nn(C)c2nc(NNC(=O)Nc3cc(Cl)nc(Cl)c3)cc(C(C)C)c12 | 94 |
| OCCCNc1cc(-c2ccnc(Nc3cccc(Cl)c3)n2)ccn1 | 58 |
| Cc1cc(=O)n(C)c2cc(N3C(=O)CC[C@H](NS(=O)(=O)CC(C)C)[C@H]3c3ccc(Cl)cc3)ccc12 | 90 |
| O=C(Nc1cc(-c2ccccc2)nn1-c1ccccc1F)c1ccc([N+](=O)[O-])cc1 | 97 |
| COC(c1ccccc1)(c1ccccc1)[C@H](Oc1nc(C)cc(C)n1)C(=O)O | 95 |
| Cc1cc(-c2ccc3c(c2)CC[C@H]3N2CC3(CCN(C(=O)Cc4cn5cc(C)sc5n4)CC3)C2)ncn1 | 94 |

Let us move to another entry and its Population Normal (%).
Sample COCCCN1CCC(NC(=O)c2cc(Cl)c(N)c3c2OCC3)CC1 [PRUCALOPRIDE] ; Population Normal (%) observed: 95

---

Tested on: Fibroblast
Assay: Multiplex assay against human fibroblast
Format: toxicity, cell-based
Conditions: 12 h, 10 µM, compound concentration 10 uM, replicate 1
Non-standard residues stand in square brackets, D forms with d. Residues, ends and D or L forms follow the SMILES beside them.
measuredEndpoint: Population Normal (%)
Expressed in %, but write only the number.

| molecule | measuredEndpoint | measureUnit | recordedResult |
| --- | --- | --- | --- |
| COc1cc(C(=O)N2CC[C@@H](O)[C@@H](N)C2)cc2nc(-c3cc4ccccc4n3CC3CC3)n(C)c12.Cl | Population Normal (%) | % | 93 |
| CN1C[C@H](C(=O)N[C@]2(C)O[C@@]3(O)[C@@H]4CCCN4C(=O)[C@H](Cc4ccccc4)N3C2=O)C[C@@H]2c3cccc4[nH]cc(c34)C[C@H]21.CS(=O)(=O)O [DIHYDROERGOTAMINE MESYLATE] | Population Normal (%) | % | 100 |
| COc1ccc2[nH]c(I)c(CCNC(C)=O)c2c1 | Population Normal (%) | % | 97 |
| CCn1c(-c2nc3cc(C(=O)N4CCCC(N)C4)ccc3n2C)cc2ccccc21.Cl (stereo not given) | Population Normal (%) | % | 98 |
| Cn1cc(C(=O)OCC2CCN(CCNS(C)(=O)=O)CC2)c2ccccc21 | Population Normal (%) | % | 96 |
| Cc1nn(C)c2nc(NNC(=O)Nc3cc(Cl)nc(Cl)c3)cc(C(C)C)c12 | Population Normal (%) | % | 96 |
| O=C(Nc1cc(-c2ccccc2)nn1-c1ccccc1F)c1ccc([N+](=O)[O-])cc1 | Population Normal (%) | % | 97 |
| COc1cc2nc(N3CCN(C(=O)COc4c(OC)cccc4C(C)C)CC3)nc(N)c2cc1OC.Cl.Cl | Population Normal (%) | % | 79 |
| CC(C)C[C@H](CO)Nc1nc(S[C@@H](C)c2ccccc2)nc2nc(N)sc12 | Population Normal (%) | % | 96 |
| Cc1cc(NC(=O)NCCN2CCC(O)(Cc3ccccc3)CC2)c2ccccc2n1 | Population Normal (%) | % | 98 |

Sample "CN1CCC(C(=O)c2cccc(NC(=O)c3c(F)cc(F)cc3F)n2)CC1" ; Population Normal (%) observed: 95

Sample Cc1ccc(OCC(O)C(C)NC(C)C)c2c1CCC2.Cl (stereo not given) ; Population Normal (%) observed: 98

Sample "Nc1nc(CC(=O)Nc2ccc(CCNC[C@H](O)c3ccccc3)cc2)cs1" ; Population Normal (%) observed: 96

Sample O=C(O)CCC/C=C\CC1C(O)CC(O)C1/C=C/C(O)COc1cccc(Cl)c1 (stereo not given) ; Population Normal (%) observed: 87

Sample "C[C@@H]1CC(=O)Nc2cccc(-c3ccc4c(c3)c(-c3cnn(C)c3)nn4C)c2N1" ; Population Normal (%) observed: 94

Sample "COc1cc(OC2CCN(C(C)=O)CC2)ccc1C(=O)N1CCC(N2C(=O)OCc3ccccc32)CC1" ; Population Normal (%) observed: 96

Sample "O=c1ccc2ccc(OCCCCN3CCN(c4cccc5sccc45)CC3)cc2[nH]1" ; Population Normal (%) observed: 98

Sample "CC(C)(O)C(=O)N1CCN(c2ccc(C(F)(F)F)c(C3=C(c4c[nH]c5ccccc45)C(=O)NC3=O)c2)CC1" ; Population Normal (%) observed: 96

Sample "CC(C)(C)c1ccc(CSc2cnn(C(C)(C)C)c(=O)c2Cl)cc1" ; Population Normal (%) observed: 95

Sample "Cc1sc2c(c1C)C(c1ccc(Cl)cc1)=N[C@H](CC(=O)OC(C)(C)C)c1nnc(C)n1-2" ; Population Normal (%) observed: 92

Sample "COc1c(Nc2ccc(S(C)(=O)=O)nc2C)ncnc1OC1CCN(C(=O)OC(C)C)CC1" ; Population Normal (%) observed: 97

Sample COc1cc2nc(N3CCN(C(=O)c4ccco4)CC3)nc(N)c2cc1OC.Cl [PRAZOSIN HYDROCHLORIDE] ; Population Normal (%) observed: 98

Sample "COC(c1ccccc1)(c1ccccc1)[C@H](Oc1nc(C)cc(C)n1)C(=O)O" ; Population Normal (%) observed: 94

Sample CC(C)C[C@@H]1NC(=O)[C@@H](C(C)C)NC(=O)[C@@H]2CCCN2C(=O)[C@@H](CC(=O)O)NC(=O)[C@@H](Cc2c[nH]c3ccccc23)NC1=O [BQ-123] (cyclo(L[dW][dD]P[dV])) ; Population Normal (%) observed: 97

Sample "OCCCNc1cc(-c2ccnc(Nc3cccc(Cl)c3)n2)ccn1" ; Population Normal (%) observed: 89

Sample "COc1ccc2c(c1OCc1ccccc1)C[C@@H](C(=O)O)N(C(=O)C(c1ccccc1)c1ccccc1)C2" ; Population Normal (%) observed: 99

Sample "C[C@H](NC(=O)CNC(=O)c1cccc(Cl)c1)c1ccccc1" ; Population Normal (%) observed: 97
